Test: Cytotoxicity against human GHOST-R5X4 cells after 48 hrs by MTT assay
Format: functional, cell-based
Conditions: GHOST-R5X4, 48 h
Where a name gives a salt, the structure may show the parent alone.
hey, just use Y if measured IC50 is less than 10 µM, otherwise N

Reference set, count: 3
Query: Quick check: does C[C@H]1O[C@H](O[C@]23C(=O)C[C@](C)(O)C[C@@]2(O)C=CC2=C3C(=O)c3cccc(O)c3C2=O)CC[C@H]1O [SAKYOMICIN C] have IC50 under 10 µM?
Result: N

Query: Same question, "COc1cccc2c1C(=O)c1ccc3cc(C)cc(O)c3c1C2=O" this time
Result: N

Query: Same question, COc1cccc2c1C(=O)c1c(O)c3c(c(O)c1C2=O)C[C@@](O)(C(=O)CO)C[C@@H]3O[C@H]1C[C@H](N)[C@H](O)[C@H](C)O1 [DOXORUBICIN HYDROCHLORIDE] this time
Result: Y

New cases:
Query: Quick check: does "C[C@@]1(O)Cc2ccc3c(c2C(=O)[C@@H]1O)C(=O)c1cccc(O)c1C3=O" have IC50 under 10 µM?
Result: N

Query: Same question, C[C@]1(O)CC(=O)c2c(ccc3c2C(=O)c2cccc(O)c2C3=O)C1 [TETRANGOMYCIN] this time
Result: N

====

System: BGC-823
Assay: Cytotoxicity against human BGC823 cells after 48 hrs by MTT assay
Format: functional, cell-based
Conditions: BGC-823, 48 h
Counter-ions that a name gives are not always drawn.
Endpoint Label: pIC50
Reminder that pIC50 means the negative base-10 logarithm of the concentration expressed in mol/L.

Worked cases, answers included:
Query: Which measured pIC50 value corresponds to COc1cccc2c1C(=O)c1c(O)c3c(c(O)c1C2=O)C[C@@](O)(C(=O)CO)C[C@@H]3O[C@H]1C[C@H](N)[C@H](O)[C@H](C)O1 [DOXORUBICIN HYDROCHLORIDE] ?
Result: 8.00

Query: Same question, C[C@H]1O[C@H](O[C@]23C(=O)C[C@](C)(O)C[C@@]2(O)C=CC2=C3C(=O)c3cccc(O)c3C2=O)CC[C@H]1O [SAKYOMICIN C] this time
Result: 4.96

Query: Same question, C[C@H]1O[C@H](O[C@]23C(=O)[C@@H](O)[C@](C)(O)C[C@@]2(O)C=CC2=C3C(=O)c3cccc(O)c3C2=O)CC[C@H]1O [SAKYOMICIN A] this time
Result: 4.82

Would you kindly look at the next entry?
Query: Which measured pIC50 value corresponds to C[C@]1(O)CC(=O)c2c(ccc3c2C(=O)c2cccc(O)c2C3=O)C1 [TETRANGOMYCIN] ?
Result: 4.44

====

System: A-375
Experiment: Cytotoxicity against human A375 cells after 48 hrs by MTT assay
Assay type: functional, cell-based
Settings: A-375, 48 h
Counter-ions that a name gives are not always drawn.
The following molecules are listed with their measured pIC50 values.
Reminder that pIC50 means the negative base-10 logarithm of the concentration expressed in mol/L.

Query: Which measured pIC50 value corresponds to COc1cccc2c1C(=O)c1c(O)c3c(c(O)c1C2=O)C[C@@](O)(C(=O)CO)C[C@@H]3O[C@H]1C[C@H](N)[C@H](O)[C@H](C)O1 [DOXORUBICIN HYDROCHLORIDE] ?
Result: 6.14

Would you kindly look at the next entry?
Query: Which measured pIC50 value corresponds to "C[C@H]1O[C@H](O[C@]23C(=O)C[C@](C)(O)C[C@@]2(O)C=CC2=C3C(=O)c3cccc(O)c3C2=O)CC[C@H]1O" ?
Result: 4.76
